- protocol notes: Inhibition of Influenza A virus A/chicken/shandong/S2/02(H9N2) Neuraminidase

| smiles string | IC50 |
| --- | --- |
| CCCN(C(=N)N)[C@H]1CC(C(=O)O)=C[C@@H](OC(CC)CC)[C@@H]1NC(C)=O | > 5000 nM |
| CCC(CC)O[C@@H]1C=C(C(=O)O)C[C@H](NCc2ccc(-c3cccs3)cc2)[C@H]1NC(C)=O | 210 nM |
| C=CCOc1ccccc1CN[C@H]1CC(C(=O)O)=C[C@@H](OC(CC)CC)[C@@H]1NC(C)=O | 1910 nM |
| CCC(CC)O[C@@H]1C=C(C(=O)O)C[C@H](N(Cc2ccc(C(C)C)cc2)C(=N)N)[C@H]1NC(C)=O | 2160 nM |
